Target: Gal(b1-3)[Neu5Ac(a2-6)]GalNAc
Experiment: glycan array binding signal (z-score within array); higher = stronger binding
Conditions: glycan notation: IUPAC condensed, linker removed
The entries come from a sample that favours the strongest signals as a whole.

>  <binder>
Epa3 (Candida glabrata), Q6VBI8_CANGB (protein) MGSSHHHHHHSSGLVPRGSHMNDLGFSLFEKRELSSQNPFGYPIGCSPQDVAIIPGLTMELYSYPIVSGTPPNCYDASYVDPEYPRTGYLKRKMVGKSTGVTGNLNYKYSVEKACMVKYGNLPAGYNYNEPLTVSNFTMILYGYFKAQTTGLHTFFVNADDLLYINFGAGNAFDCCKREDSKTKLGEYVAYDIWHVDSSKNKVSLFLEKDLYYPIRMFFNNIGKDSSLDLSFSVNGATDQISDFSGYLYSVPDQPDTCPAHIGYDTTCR

>  <glycan array binding signal (z-score)>
4.98

$$$$
>  <binder>
Epa1to9 (Candida glabrata) (protein) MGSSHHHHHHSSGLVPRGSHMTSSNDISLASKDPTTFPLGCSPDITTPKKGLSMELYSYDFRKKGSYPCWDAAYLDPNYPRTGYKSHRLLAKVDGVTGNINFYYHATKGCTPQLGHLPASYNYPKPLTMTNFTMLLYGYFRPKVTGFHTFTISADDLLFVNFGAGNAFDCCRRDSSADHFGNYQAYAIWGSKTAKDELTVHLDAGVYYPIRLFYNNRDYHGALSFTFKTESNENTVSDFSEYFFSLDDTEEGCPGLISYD

>  <glycan array binding signal (z-score)>
4.47

$$$$
>  <binder>
NakA (Mycobacterium tuberculosum) (protein) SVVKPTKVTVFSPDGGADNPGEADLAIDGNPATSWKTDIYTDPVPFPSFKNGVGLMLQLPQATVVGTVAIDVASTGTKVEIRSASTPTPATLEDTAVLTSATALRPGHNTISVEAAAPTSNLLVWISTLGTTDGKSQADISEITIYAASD

>  <glycan array binding signal (z-score)>
-0.457

$$$$
>  <binder>
GNAT (Pseudomonas aeruginosa), Q9HV14 (protein) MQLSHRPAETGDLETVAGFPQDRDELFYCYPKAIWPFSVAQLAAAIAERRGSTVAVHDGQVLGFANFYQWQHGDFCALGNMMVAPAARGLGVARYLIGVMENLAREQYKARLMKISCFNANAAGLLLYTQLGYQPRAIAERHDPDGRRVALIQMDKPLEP

>  <glycan array binding signal (z-score)>
0.421

$$$$
>  <binder>
F17aG (Escherichia coli), Q99003 (protein) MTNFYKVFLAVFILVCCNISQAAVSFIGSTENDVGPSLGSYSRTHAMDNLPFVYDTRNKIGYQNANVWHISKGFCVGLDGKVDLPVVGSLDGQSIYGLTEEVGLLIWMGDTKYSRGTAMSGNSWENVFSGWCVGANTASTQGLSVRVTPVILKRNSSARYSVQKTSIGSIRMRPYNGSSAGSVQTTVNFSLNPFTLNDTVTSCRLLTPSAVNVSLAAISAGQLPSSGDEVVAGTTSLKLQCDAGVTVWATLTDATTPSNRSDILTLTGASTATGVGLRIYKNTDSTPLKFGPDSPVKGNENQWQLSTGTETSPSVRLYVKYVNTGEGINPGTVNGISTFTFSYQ

>  <glycan array binding signal (z-score)>
-0.205

$$$$
